Published IC50 for PIK3CD (Human) (UniProt O00329), assembled from different documents, is shown next.
Numbers only, in nM.

I would be grateful if you could provide IC50 for each of the following entries.
1. Cc1noc(C)c1-c1nc(Nc2ccc(C(N)=O)cc2)c2cnn(C)c2n1
2. CN(C)C1Cc2ccc(Nc3ncc4cc(C#N)c(=O)n(C5CCCC5)c4n3)cc2C1 (centres unmarked)
3. O=S1(=O)CCCN1[C@H]1CC[C@H](COc2cc(-n3c(C(F)F)nc4ccccc43)nc(N3CCOCC3)n2)CC1
4. COc1ncc(-c2nc(N3CCOCC3)nc3c(CN4CCC(N5CCC(F)CC5)CC4)c(C)sc23)cc1NS(C)(=O)=O
5. COC[C@@H]1CCN(C(=O)Nc2nc3c(s2)-c2nc(C(C)(C)C(F)(F)F)ncc2CC3)[C@@H]1C(N)=O
6. COc1ncc(-c2nc(N3CCOCC3)nc3c(CN4CCC(N5CCCC5)C(F)(F)C4)c(C)sc23)cc1NS(C)(=O)=O (centres unmarked)

Data returned:
439
345
20
6
24
6.8

----------
Published IC50 for PIK3CD (Human), assembled from different documents, is shown next.

Example compounds with recorded IC50:
Data request: Look up IC50 of CC(C)(c1cc(-c2sc(NC(=O)N3CCC[C@H]3C(N)=O)nc2Cl)ccn1)C(F)(F)F and report it.
Data returned: 386 nM

Data request: Look up IC50 of CCc1ccccc1-n1c(Cn2nc(C#C[C@@H](C)O)c3c(N)ncnc32)cc2cccc(C)c2c1=O and report it.
Data returned: < 100 nM

Data request: Look up IC50 of CC(=O)N1CC(N2CCOc3c(C(C)n4nc(C)c5c(N)ncnc54)cc(Cl)c(F)c3C2)C1 (stereo not drawn) and report it.
Data returned: ≤ 100 nM

Data request: Look up IC50 of CC(C)n1c(Cn2nc(-c3cc(O)cc(F)c3)c3c(N)ncnc32)cc2cccc(F)c2c1=O and report it.
Data returned: < 100 nM

I would be grateful if you could provide IC50 for each of the following entries.
1. CCN(CC)c1ncc2c(n1)-c1sc(NC(=O)N3CCC[C@@]3(COC)C(N)=O)nc1CC2
2. C[C@H](NC(=O)c1c(N)nn2cccnc12)c1nn2ccc(-c3cnn(C)c3)c2c(=O)n1-c1ccccc1

Data returned:
["46 nM", "> 10000 nM"]

----------
Published pIC50 for PIK3CD (Human) (UniProt O00329), assembled from different documents, is shown next.
pIC50: −log10 of the molar value.

I would be grateful if you could provide pIC50 for each of the following entries.
1. CCc1ccccc1-n1c(Cn2nc(Br)c3c(N)ncnc32)nc2scc(C)c2c1=O
2. Cc1cnc(C(=O)N[C@@H](C)c2c(Br)c3cccc(Cl)c3c(=O)n2-c2ccccc2)c(N)n1
3. C[C@H](Nc1ncnc2[nH]cnc12)c1cc2cccc(Cl)c2c(C(=O)N(C)c2ccccc2)n1
4. CC1(C)CN(C2CN(c3cnc4ccc(-c5ccc6oc(N)nc6c5)nc4n3)C2)CCO1
5. CNC(=O)Nc1nc2ccc(-c3nn(Cc4cc5cccc(C)c5c(=O)n4-c4ccccc4C)c4ncnc(N)c34)cc2s1

Data returned:
1: > 7.00; 2: 5.00 to 6.00; 3: > 6.00; 4: < 5.00; 5: > 7.00

I would be grateful if you could provide pIC50 for each of the following entries.
1. [2H]c1c(-c2ccc3ncc(C(=O)N4CCOCC4)n3c2)c([2H])c2nc(N)oc2c1[2H]
2. C[C@H](NC(=O)c1nc(-c2cccc(S(=O)(=O)NC(C)(C)C)c2)cnc1N)c1cc2cccc(Cl)c2c(=O)n1-c1ccccc1
3. C[C@H](NC(=O)c1c(N)nn2ccc(-c3cccc(S(C)(=O)=O)c3)nc12)c1cc2cccc(Cl)c2c(=O)n1-c1ccccc1

Data returned:
1: < 5.00; 2: 5.00 to 6.00; 3: > 7.00
